# TESTED_SYSTEM: KLK6 (Homo sapiens)
# METHOD_NOTES: Biochemical inhibition assay, fluorogenic substrate FSR-AMC
# ASSAY_SETUP: read-out: KLK6 IC50; KLK6 5 nM (produced in insect cells); 30 min incubation with inhibitor; FSR-AMC 20 µM; Tris pH 7.5
So I've got a bunch of compounds here, and I need their pIC50 values.
The value called pIC50 is obtained by taking minus log10 of the concentration in mol/L.

Incoming: Which pIC50 is reported for this compound? Cc1nn(-c2ccccc2)c(C)c1NC(=O)COC(=O)C(C)c1c[nH]c2ccccc12 (stereo not drawn)
Outgoing: 4.84

Incoming: Field entry: COc1cccc(NC(=O)COC(=O)Cc2c(C)[nH]c3ccccc23)c1
Outgoing: 5.22

Incoming: Field entry: Cc1ccc(-n2nc(C)c(NC(=O)COC(=O)Cn3c(C(F)(F)F)cc4ccccc43)c2C)cc1
Outgoing: 6.62

---

# TESTED_SYSTEM: Factor Xa (Homo sapiens, UniProt P00742)
# Sequence (P00742 235-488 limits assumed): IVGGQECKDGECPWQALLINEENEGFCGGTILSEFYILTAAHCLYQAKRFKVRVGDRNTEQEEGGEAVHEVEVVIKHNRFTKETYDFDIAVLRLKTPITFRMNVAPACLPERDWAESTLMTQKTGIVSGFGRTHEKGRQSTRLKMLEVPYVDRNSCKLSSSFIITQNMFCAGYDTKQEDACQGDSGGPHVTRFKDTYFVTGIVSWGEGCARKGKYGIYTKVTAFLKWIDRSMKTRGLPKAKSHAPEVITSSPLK
# Sequence (P00742 41-179 partner limits assumed): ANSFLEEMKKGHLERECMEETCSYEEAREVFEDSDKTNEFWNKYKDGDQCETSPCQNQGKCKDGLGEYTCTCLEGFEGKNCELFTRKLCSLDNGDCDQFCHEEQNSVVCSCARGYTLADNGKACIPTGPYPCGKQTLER
# METHOD_NOTES: Biochemical inhibition assay, fluorogenic substrate FSR-AMC
# ASSAY_SETUP: read-out: Factor Xa IC50; Factor Xa 4 nM; 30 min incubation with inhibitor; FSR-AMC 20 µM; Tris pH 7.5
So I've got a bunch of compounds here, and I need their IC50 values.

Incoming: Which IC50 is reported for this compound? Cc1[nH]c2ccccc2c1CC(=O)OCC(=O)Nc1ccc(N2CCOCC2)cc1 [compound 76]
Outgoing: > 200 µM

Incoming: Field entry: Cc1nn(-c2ccccc2N)c(C)c1NC(=O)COC(=O)Cn1c(C)cc2ccccc21 [compound 23]
Outgoing: > 200 µM

Incoming: Field entry: Cc1cc2ccccc2n1CC(=O)OCC(=O)Nc1ccc(N2CCOCC2)cc1 [compound 35]
Outgoing: > 50 µM

Incoming: Field entry: Cc1nn(-c2ccccc2)c(C)c1NC(=O)COC(=O)Cn1ccc2cc(Cl)ccc21 [compound 28]
Outgoing: > 50 µM

Incoming: Field entry: Cc1nn(-c2ccccc2)c(C)c1NC(=O)COC(=O)C(C)c1c(C)[nH]c2ccccc12 (stereo not drawn) [compound 81]
Outgoing: > 200 µM

Incoming: Field entry: Cc1ccccc1CC(=O)OCC(=O)Nc1c(C)nn(-c2ccccc2)c1C [compound 50]
Outgoing: > 200 µM

Incoming: Field entry: Cc1nn(-c2ccc(NCCCCO)cc2)c(C)c1NC(=O)COC(=O)Cn1c(C)cc2ccccc21 [compound 19]
Outgoing: > 200 µM

Incoming: Field entry: Cc1nn(-c2ccccc2)c(C)c1NC(=O)C(C)OC(=O)Cn1c(C)cc2ccccc21 (racemic) [compound 37]
Outgoing: > 50 µM

Incoming: Field entry: Cc1ccc(NC(=O)COC(=O)Cc2c(C)[nH]c3ccccc23)cc1 [compound 74]
Outgoing: > 200 µM

Incoming: Field entry: Cc1nn(-c2ccccc2)c(C)c1NC(=O)COC(=O)Cc1cccc(F)c1 [compound 64]
Outgoing: > 200 µM

Incoming: Field entry: Cc1nn(-c2ccccc2)c(C)c1NC(=O)C1(OC(=O)Cn2c(C)cc3ccccc32)CC1 [compound 40]
Outgoing: > 50 µM

Incoming: Field entry: Cc1nn(-c2ccccc2)c(C)c1NC(=O)COC(=O)Cc1ccccn1 [compound 58]
Outgoing: > 200 µM

Incoming: Field entry: Cc1nn(-c2ccccc2)c(C)c1NC(=O)COC(=O)CCc1c(C)[nH]c2ccccc12 [compound 87]
Outgoing: > 200 µM

Incoming: Field entry: Cc1[nH]c2ccccc2c1CC(=O)OCC(=O)NCc1ncc[nH]1 [compound 85]
Outgoing: 157 µM

Incoming: Field entry: COc1ccccc1CC(=O)OCC(=O)Nc1c(C)nn(-c2ccccc2)c1C [compound 54]
Outgoing: > 200 µM

Incoming: Field entry: Cc1nn(-c2ccccc2)c(C)c1NC(=O)COC(=O)Cc1ccccc1C(F)(F)F [compound 63]
Outgoing: > 200 µM

Incoming: Field entry: Cc1nn(-c2ccccc2)c(C)c1NC(=O)COC(=O)Cn1c(C)cc2cccc(Cl)c21 [compound 33]
Outgoing: > 50 µM

Incoming: Field entry: Cc1nn(-c2ccccc2)c(C)c1NC(=O)COC(=O)Cc1ccccc1I [compound 51]
Outgoing: > 200 µM

Incoming: Field entry: CC(=O)Nc1cccc(CC(=O)OCC(=O)Nc2c(C)nn(-c3ccccc3)c2C)c1 [compound 47]
Outgoing: > 200 µM

Incoming: Field entry: Cc1nn(-c2ccccc2)c(C)c1NC(=O)COC(=O)Cc1ccsc1Cl [compound 66]
Outgoing: > 200 µM

Incoming: Field entry: COc1cccc(CC(=O)OCC(=O)Nc2c(C)nn(-c3ccccc3)c2C)c1 [compound 53]
Outgoing: > 200 µM

Incoming: Field entry: Cc1ccc(-n2nc(C)c(NC(=O)COC(=O)Cn3c(C(F)(F)F)cc4ccccc43)c2C)cc1 [compound 20]
Outgoing: > 200 µM

Incoming: Field entry: Cc1nn(-c2ccccc2)c(C)c1NC(=O)COC(=O)Cn1c(C(C)C)cc2ccccc21 [compound 32]
Outgoing: > 50 µM

Incoming: Field entry: Cc1nn(-c2ccccc2)c(C)c1NC(=O)COC(=O)Cc1ccc(Cl)s1 [compound 60]
Outgoing: > 200 µM

Incoming: Field entry: Cc1nn(-c2ccc(N)cc2)c(C)c1NC(=O)COC(=O)Cn1c(C)cc2ccccc21 [compound 22]
Outgoing: > 200 µM

Incoming: Field entry: Cc1nn(-c2ccccc2)c(C)c1NC(=O)COC(=O)Cc1ccccc1N=[N+]=[N-] [compound 82]
Outgoing: > 200 µM

Incoming: Field entry: COc1cccc(NC(=O)COC(=O)Cc2c(C)[nH]c3ccccc23)c1 [compound 79]
Outgoing: > 200 µM

---

# TESTED_SYSTEM: Thrombin (Homo sapiens, UniProt P00734)
# METHOD_NOTES: Biochemical inhibition assay, fluorogenic substrate FSR-AMC
# ASSAY_SETUP: read-out: Thrombin IC50; Thrombin 9.8·10^-5 NIH unit/mL; 30 min incubation with inhibitor; FSR-AMC 20 µM; Tris pH 7.5
So I've got a bunch of compounds here, and I need their IC50 values.

Incoming: Which IC50 is reported for this compound? Cc1[nH]c2ccccc2c1CC(=O)OCC(=O)Nc1ccc(F)cn1
Outgoing: 60.3 µM

Incoming: Field entry: Cc1nn(-c2ccccc2)c(C)c1NC(=O)COC(=O)Cc1ccc(Cl)s1
Outgoing: > 200 µM

Incoming: Field entry: Cc1ccccc1NC(=O)COC(=O)Cc1c(C)[nH]c2ccccc12
Outgoing: > 200 µM

Incoming: Field entry: Cc1nn(-c2ccccc2)c(C)c1NC(=O)COC(=O)C(C)n1c(C)cc2ccccc21 (stereo not shown)
Outgoing: > 50 µM

---

# TESTED_SYSTEM: Trypsin (Homo sapiens)
# METHOD_NOTES: Biochemical inhibition assay, fluorogenic substrate FSR-AMC
# ASSAY_SETUP: read-out: Trypsin IC50; Trypsin 0.88 ng/mL; 30 min incubation with inhibitor; FSR-AMC 20 µM; Tris pH 7.5
pIC50: −log10 of the molar value.
So I've got a bunch of molecules here, and I need their pIC50 values.

Incoming: Give Trypsin (Homo sapiens) pIC50 for Cc1nn(-c2ccccc2)c(C)c1NC(=O)COC(=O)Cc1coc2ccccc12
Outgoing: < 4.30

Incoming: Field entry: Cc1[nH]c2ccccc2c1CC(=O)OCC(=O)Nc1ccc(N2CCOCC2)cc1
Outgoing: < 3.70

Incoming: Field entry: Cc1nn(-c2ccccc2)c(C)c1NC(=O)COC(=O)C(C)c1c[nH]c2ccccc12 (stereo not drawn)
Outgoing: < 3.70

Incoming: Field entry: Cc1ccc(-n2nc(C)c(NC(=O)COC(=O)Cn3c(C(F)(F)F)cc4ccccc43)c2C)cc1
Outgoing: < 3.70

Incoming: Field entry: Cc1nn(-c2ccccc2)c(C)c1NC(=O)COC(=O)Cc1ccccc1I
Outgoing: < 3.70

Incoming: Field entry: COc1ccc(CC(=O)OCC(=O)Nc2c(C)nn(-c3ccccc3)c2C)cc1
Outgoing: < 3.70

Incoming: Field entry: Cc1[nH]c2ccccc2c1CC(=O)OCC(=O)Nc1cnn(-c2ccccc2)c1
Outgoing: < 4.30

Incoming: Field entry: COc1ccc(NC(=O)COC(=O)Cc2c(C)[nH]c3ccccc23)cc1
Outgoing: < 3.70

Incoming: Field entry: Cc1nn(-c2ccccc2)c(C)c1NC(=O)COC(=O)Cc1cccc2ccccc12
Outgoing: < 4.30

---

# TESTED_SYSTEM: KLK6 (Homo sapiens)
# METHOD_NOTES: Biochemical inhibition assay, fluorogenic substrate FSR-AMC
# ASSAY_SETUP: read-out: KLK6 IC50; KLK6 5 nM (produced in insect cells); 30 min incubation with inhibitor; FSR-AMC 20 µM; Tris pH 7.5
OBSERVATION_TYPE: IC50 (µM)
Write down the numeric answer in µM and omit the unit.

Incoming: Which IC50 is reported for this compound? Cc1cc2ccccc2n1CC(=O)OCC(=O)Nc1ccccc1 [compound 24]
Outgoing: 9.96

Incoming: Field entry: Cc1nn(-c2ccccc2)c(C)c1NC(=O)COC(=O)Cc1ccc(N)cc1 [compound 44]
Outgoing: 12.2

Incoming: Field entry: Cc1nn(-c2ccccc2)c(C)c1NC(=O)COC(=O)C(C)n1c(C)cc2ccccc21 (stereo not shown) [compound 34]
Outgoing: 11.3

Incoming: Field entry: Cc1nn(-c2ccccc2)c(C)c1NC(=O)COC(=O)Cc1cn(C)c2ccccc12 [compound 18]
Outgoing: 11.6
